The reported measurements were obtained from PubChem BioAssay (Tox21).

# assay: qHTS assay to identify aromatase inhibitors - cell viability counter screen (AID 743084);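 note: cells stimulated with testosterone during compound exposure; nearly all actives have a fitted effect of over 55% in size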; note: potency is the fitted concentration of half-maximal effect
# experimental conditions: MCF-7 aro ERE viability, CellTiter-Fluor, 24 h; series mostly up to 70.3 µM
Inconclusive results are not listed. Activity calls are given as the source filed them. Calls come from the whole dose curve; as a rule, active = well fitted cell-killing curve with a large enough effect in the repeat runs; inconclusive = weak or mixed curves, or effect the other way; inactive = no such curve, though single readings can be large or run the other way.
value type: Potency

Consider the following illustrative entries.
compound	Potency
CC(CN(C)C)C(C)(O)Cc1ccc(Cl)cc1 (stereo unspecified)	inactive
CCOC(C)=O	inactive
CCC(=O)OC	inactive
CCC(=O)C1CC(C(C)C)CC=C1C (stereo unspecified)	inactive
O=C1c2ccccc2C(=O)C1c1ccc(Br)cc1	inactive
Cc1cc(C)c(N)cc1C	inactive
CC(C)C(O)(c1ccc(OC(F)(F)F)cc1)c1cncnc1 (stereo unspecified)	inactive
CC(=O)OCCN(CCOC(C)=O)c1ccc(N=Nc2ccc([N+](=O)[O-])cc2C#N)cc1	27.3 µM (active)

Please give measured Potency of the following entry: CC(CCC(=O)O)C(=O)O (stereo unspecified) inactive

Please give measured Potency of the following entry: CCCCCC#CC(=O)OC inactive

Please give measured Potency of the following entry: Cc1cc2c(OCC(CNC(C)(C)C)OC(=O)c3ccccc3)cccc2[nH]1 (stereo unspecified) inactive

Please give measured Potency of the following entry: CC(=O)OCC(=O)NCCCOc1cccc(CN2CCCCC2)c1 inactive

* * *

# assay: qHTS assay to identify small molecule antagonists of the peroxisome proliferator-activated receptor gamma (PPARg) signaling pathway - cell viability counter screen (AID 743194); note: nearly all actives have a fitted effect of over 55% in size
# experimental conditions: PPARg-bla HEK293H viability, CellTiter-Glo luminescence, 17 h, co-treated with 50 nM rosiglitazone; series mostly up to 62.6 µM
Records with an inconclusive call do not appear. Calls of active or inactive are those of the source. Calls come from the whole dose curve; as a rule, active = well fitted cell-killing curve with a large enough effect in the repeat runs; inconclusive = weak or mixed curves, or effect the other way; inactive = no such curve, though single readings can be large or run the other way.
Returns: one label drawn from active, inactive

Some entries whose results are on file:
compound	discrete label
C=CC(C)(CCC=C(C)C)OC(=O)CC(C)C (stereo unspecified)	inactive
CCOC(=O)c1ccc(OCCN2C[C@H](O)[C@@H](O)[C@H](O)[C@H]2CO)cc1	inactive
COc1cc(C(=O)NC2CCN(C)CC2)ccc1Nc1ncc2c(n1)N(C1CCCC1)CC(F)(F)C(=O)N2C	active
C=C(C)CCCC(C)CCO (stereo unspecified)	inactive
CN1C(=O)OC(C)(C)C1=O	inactive

Test call, this compound: Cc1cc(O)c(C)c(C)c1O inactive

Test call, this compound: CC1=C(Br)C(=O)C(Br)=C/C1=C(/c1ccccc1S(=O)(=O)O)c1cc(Br)c(O)c(Br)c1C inactive

Test call, this compound: CC(C)C(O)(c1ccc(OC(F)(F)F)cc1)c1cncnc1 (stereo unspecified) inactive

Test call, this compound: CC(C)Nc1cccnc1N1CCN(C(=O)c2cc3cc(NS(C)(=O)=O)ccc3[nH]2)CC1 inactive

Test call, this compound: CO[C@]1(NC(=O)CSC(F)F)C(=O)N2C(C(=O)O)=C(CSc3nnnn3CCO)CO[C@H]21 inactive

Test call, this compound: Cc1cccc(N(C)C(=S)Oc2ccc3c(c2)CCC3)c1 inactive

* * *

# assay: qHTS assay for small molecule agonists of the p53 signaling pathway (AID 651631); note: nearly all actives have a fitted effect of over 15% in size
# experimental conditions: HCT-116 p53RE-bla reporter, beta-lactamase FRET ratio, 16 h; series mostly up to 73.3 µM
Records with an inconclusive call do not appear. Calls of active or inactive are those of the source. Calls follow the shape of the full dose curve.
Returns: one label drawn from T = active, F = inactive

Some entries whose results are on file:
compound	discrete label
Cc1cccc(N(C)C(=S)Oc2ccc3c(c2)CCC3)c1	F
CC(C)=CCC1C(=O)N(c2ccccc2)N(c2ccccc2)C1=O	T
CCCCCCCCCCC(=O)O	F
NCCNCCO	F

Test call, this compound: C[C@@H](O)[C@H]1C(=O)N2C(C(=O)O)=C([C@H]3CCCO3)S[C@H]12 F

Test call, this compound: O=C(O)CCC(=O)C(=O)O F

Test call, this compound: c1cc(N(CC2CO2)CC2CO2)ccc1Cc1ccc(N(CC2CO2)CC2CO2)cc1 (stereo not given) T

Test call, this compound: CC(C)=CC(=O)C=C(C)C F

Test call, this compound: C=COCC(C)C F

Test call, this compound: CCCCCCNC(=O)n1cc(F)c(=O)[nH]c1=O T

Test call, this compound: CCCCCCCC/C=C\CCCCCCCCCCCC(=O)O F

Test call, this compound: CN1C(=O)N(c2ccccc2Br)Cc2cnc(Nc3ccc4c(c3)OCC(CO)O4)nc21 (stereo not given) T

Test call, this compound: O=C1c2ccccc2C(=O)C1c1ccc(Br)cc1 F

Test call, this compound: CCCCCCCCN F

Test call, this compound: FC(F)(F)c1ccccc1Cl F

Test call, this compound: C=C(C)[C@@H]1CCC2=CCC[C@@H](C)[C@]2(C)C1 F

Test call, this compound: CCCCCC[C@@H](O)C/C=C\CCCCCCCC(=O)OCC(O)CO (stereo not given in full) F

Test call, this compound: CCn1cc(C(=O)O)c(=O)c2cc(F)c(N3CCNCC3)cc21 F
